# Test system: E. coli TESEC Mtb Asd
# PROTOCOL DESCRIPTION: growth (OD600 after 10 h); higher = more growth (less inhibition)
# CONDITION PARAMETERS: arabinose induction (level): High; compound 0.1 mM; raw OD600 reference: median of DMSO wells 0.331, cell-free background 0.041
Where a name gives a salt, the structure may show the parent alone.
ENDPOINT: growth
Answers are plain numbers.

Here is how some compounds turned out for growth.
CC(C)CC(=O)N[C@H](C(=O)N[C@H](C(=O)N[C@@H](CC(C)C)[C@@H](O)CC(=O)N[C@@H](C)C(=O)N[C@@H](CC(C)C)[C@@H](O)CC(=O)O)C(C)C)C(C)C = 0.419
CC(=O)Oc1cc(C(C)C)c(OCCN(C)C)cc1C [Moxisylyte hydrochoride] = 0.297
CCCCOc1ccc(OCCCN2CCOCC2)cc1 [Pramoxine hydrochloride] = 0.362
CC(=O)[C@H]1CC[C@H]2[C@@H]3C[C@H](C)C4=CC(=O)CC[C@]4(C)[C@H]3[C@@H](O)C[C@]12C = 0.217
O=C(O)Cc1sc(-c2ccccc2)nc1-c1ccc(Cl)cc1 = 0.189
Cc1[nH]c(=O)c(C#N)cc1-c1ccncc1 = 0.304
Clc1cccc(Cl)c1NC1=NCCN1 [Clonidine hydrochloride] = 0.377

Summary for this compound, CCN(CC)CCCC(C)Nc1c2ccc(Cl)cc2nc2ccc(OC)cc12 (stereo not drawn) [Quinacrine dihydrochloride hydrate] : growth is 0.0701
